target: mouse TRPM3α2 (mTRPM3) ion channel (Mus musculus); assay: TRPM3 ion channel driven Ca2+ uptake (Fluo-4 AM assay, pregnenolone sulfate stimulated); conditions: TRPM3 overexpressing flip-in HEK293 cells, channel opened with pregnenolone sulfate (PS) 50 μM, 2.4 mM Ca2+
Sequence (J9SQF3 1-1709 isoform J9SQF3-12): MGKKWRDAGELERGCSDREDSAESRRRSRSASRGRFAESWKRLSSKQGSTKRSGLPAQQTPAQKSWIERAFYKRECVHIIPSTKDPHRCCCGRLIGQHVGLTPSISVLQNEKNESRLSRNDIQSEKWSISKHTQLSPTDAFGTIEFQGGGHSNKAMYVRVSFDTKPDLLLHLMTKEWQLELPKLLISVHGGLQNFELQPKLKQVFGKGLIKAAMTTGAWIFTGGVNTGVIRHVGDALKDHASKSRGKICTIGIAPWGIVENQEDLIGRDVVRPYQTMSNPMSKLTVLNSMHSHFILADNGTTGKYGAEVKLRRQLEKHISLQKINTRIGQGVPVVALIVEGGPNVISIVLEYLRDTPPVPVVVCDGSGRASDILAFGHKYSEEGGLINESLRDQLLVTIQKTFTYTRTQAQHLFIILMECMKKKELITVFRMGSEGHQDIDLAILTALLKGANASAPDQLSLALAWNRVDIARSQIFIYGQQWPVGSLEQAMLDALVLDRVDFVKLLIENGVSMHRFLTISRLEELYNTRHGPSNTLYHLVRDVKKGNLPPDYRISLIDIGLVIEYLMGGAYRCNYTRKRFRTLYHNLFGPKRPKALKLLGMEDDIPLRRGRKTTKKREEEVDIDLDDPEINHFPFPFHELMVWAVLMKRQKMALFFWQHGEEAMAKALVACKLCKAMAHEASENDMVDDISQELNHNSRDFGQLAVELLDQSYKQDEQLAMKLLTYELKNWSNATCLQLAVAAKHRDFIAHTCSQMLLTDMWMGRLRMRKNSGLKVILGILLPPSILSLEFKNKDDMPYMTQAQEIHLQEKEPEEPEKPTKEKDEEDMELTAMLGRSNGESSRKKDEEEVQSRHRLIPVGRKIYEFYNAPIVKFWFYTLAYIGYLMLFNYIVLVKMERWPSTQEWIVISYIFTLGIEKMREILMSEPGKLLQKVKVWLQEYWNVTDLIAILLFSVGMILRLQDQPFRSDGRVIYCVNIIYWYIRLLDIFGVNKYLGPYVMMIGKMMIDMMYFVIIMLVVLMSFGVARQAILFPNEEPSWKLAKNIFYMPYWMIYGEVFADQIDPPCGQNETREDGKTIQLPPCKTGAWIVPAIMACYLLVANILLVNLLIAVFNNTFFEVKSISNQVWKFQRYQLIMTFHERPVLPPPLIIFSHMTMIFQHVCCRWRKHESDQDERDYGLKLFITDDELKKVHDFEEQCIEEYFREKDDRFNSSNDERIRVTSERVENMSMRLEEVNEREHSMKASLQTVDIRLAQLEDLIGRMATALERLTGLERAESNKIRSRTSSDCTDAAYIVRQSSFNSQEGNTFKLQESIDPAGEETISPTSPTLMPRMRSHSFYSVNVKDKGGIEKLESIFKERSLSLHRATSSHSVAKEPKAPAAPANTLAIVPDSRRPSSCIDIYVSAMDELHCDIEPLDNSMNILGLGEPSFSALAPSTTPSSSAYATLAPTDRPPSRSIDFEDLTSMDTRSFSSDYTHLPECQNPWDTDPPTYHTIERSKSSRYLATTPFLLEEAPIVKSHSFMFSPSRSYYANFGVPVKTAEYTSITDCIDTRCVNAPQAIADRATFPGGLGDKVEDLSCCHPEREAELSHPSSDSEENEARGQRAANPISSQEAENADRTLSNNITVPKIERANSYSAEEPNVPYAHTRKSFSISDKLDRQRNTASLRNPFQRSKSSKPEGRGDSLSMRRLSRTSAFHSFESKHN
Measured Parameter: IC50

Guide cases for IC50, answers given:
Compound: Cc1ncc(COc2ccc3cc(C)c(C(=O)NC(C)(CO)CO)n3c2)s1 [Cpd 030]
Measured Parameter: IC50
Reported Result: < 1000 nM
//
Compound: Cc1cc2ccc(OCc3ccccn3)cn2c1C(=O)NC1CNCCC1(F)F (single isomer, unassigned) [Cpd 017 - En1]
Measured Parameter: IC50
Reported Result: 1000 to 20000 nM
//
Compound: Cc1cc2ccc(OCc3ccccc3F)cn2c1C(=O)N[C@@H](CO)C(N)=O [Cpd 003]
Measured Parameter: IC50
Reported Result: < 1000 nM

// each compound listed below needs its IC50
1. Cc1cc2ccc(OCc3ccccn3)cn2c1C(=O)NC(C)(CO)C(N)=O (single isomer, unassigned) [Cpd 014 - En1]
2. CC(=O)C(C)NC(=O)c1c(C)cc2ccc(OCC3CC3)cn12 (single isomer, unassigned) [Cpd 023 - En2]

["< 1000 nM", "1000 to 20000 nM"]

Numbers sourced from patent US20250376469A1.
